target: Carbonic anhydrase 4 (Homo sapiens); assay: Inhibition of human recombinant carbonic anhydrase 4 assessed as inhibition constant incubated for 10 mins by phenol red dye based stopped-flow CO2 hydration assay
Sequence (P22748 whole entry): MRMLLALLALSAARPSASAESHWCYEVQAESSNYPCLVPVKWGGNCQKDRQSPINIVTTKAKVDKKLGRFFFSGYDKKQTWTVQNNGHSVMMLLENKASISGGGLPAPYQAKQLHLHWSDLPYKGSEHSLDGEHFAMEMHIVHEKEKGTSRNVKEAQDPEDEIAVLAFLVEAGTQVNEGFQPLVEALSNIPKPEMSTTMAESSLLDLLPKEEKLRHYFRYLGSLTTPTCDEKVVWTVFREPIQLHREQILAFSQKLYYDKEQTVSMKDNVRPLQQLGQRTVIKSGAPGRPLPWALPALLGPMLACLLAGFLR
Reported Property: pKi
pKi here is simply -log10 of the concentration when that concentration is written in mol/L.

Entry CCN(C1CC(C)S(=O)(=O)c2sc(S(N)(=O)=O)cc21)S(=O)(=O)c1cccc2cccnc12 (stereo unspecified) ; pKi = 8.00

* * *

molecular target: Carbonic anhydrase 9 (Homo sapiens, UniProt Q16790); assay: Inhibition of human recombinant carbonic anhydrase 9 assessed as inhibition constant incubated for 10 mins by phenol red dye based stopped-flow CO2 hydration assay
For each entry below, report its Ki value.
Numbers only; they are read as nM.

Entry `COc1ccc2nc(-c3ccc(OC)c(OC)c3)cc(C(=O)Nc3cccc(S(N)(=O)=O)c3)c2c1` ; Ki = 51.3

Entry `NS(=O)(=O)c1ccc(NC(=O)c2cc(-c3ccccc3)nc3ccccc23)cc1` ; Ki = 70.4

Entry `COc1ccc2nc(-c3ccc(Cl)cc3Cl)cc(C(=O)NCCc3ccc(S(N)(=O)=O)cc3)c2c1` ; Ki = 73.8

Entry `NS(=O)(=O)c1ccc(NC(=O)c2cc(-c3cccc(C(F)(F)F)c3)nc3ccccc23)cc1` ; Ki = 421

Entry `COc1ccc(-c2cc(C(=O)NCCc3ccc(S(N)(=O)=O)cc3)c3cc(Cl)ccc3n2)cc1OC` ; Ki = 91.6

Entry `COc1ccc2nc(-c3ccccc3C)cc(C(=O)Nc3ccc(S(N)(=O)=O)cc3)c2c1` ; Ki = 21.4

Entry `NS(=O)(=O)c1ccc(NC(=O)c2cc(-c3ccc4c(c3)OCO4)nc3ccccc23)cc1` ; Ki = 6.5

Entry `NS(=O)(=O)c1ccc(CCNC(=O)c2cc(-c3ccccc3)nc3ccc(Br)cc23)cc1` ; Ki = 58.8

Entry `NS(=O)(=O)c1cccc(NC(=O)c2cc(-c3ccccc3)nc3ccc(Cl)cc23)c1` ; Ki = 330

* * *

For each entry below, report its log10 of Ki value.
target: Carbonic anhydrase 1 (Homo sapiens, UniProt P00915); test: Inhibition of human recombinant carbonic anhydrase 1 assessed as inhibition constant incubated for 10 mins by phenol red dye based stopped-flow CO2 hydration assay
Sequence (P00915 whole entry): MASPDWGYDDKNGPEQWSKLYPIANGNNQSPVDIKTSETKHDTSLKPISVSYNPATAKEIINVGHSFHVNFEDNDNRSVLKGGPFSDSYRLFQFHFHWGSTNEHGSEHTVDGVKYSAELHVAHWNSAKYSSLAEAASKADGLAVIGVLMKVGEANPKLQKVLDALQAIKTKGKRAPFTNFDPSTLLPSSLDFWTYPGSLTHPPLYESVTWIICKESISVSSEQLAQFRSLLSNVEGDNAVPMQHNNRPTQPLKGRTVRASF
# values: log10(Ki), units nM

Entry `NS(=O)(=O)c1cccc(NC(=O)c2cc(-c3ccccc3)nc3ccccc23)c1` ; log10 of Ki = 2.98

Entry `COc1ccc2nc(-c3ccccc3OC)cc(C(=O)Nc3ccc(S(N)(=O)=O)cc3)c2c1` ; log10 of Ki = 2.45

Entry `NS(=O)(=O)c1cccc(NC(=O)c2cc(-c3cccc(C(F)(F)F)c3)nc3ccccc23)c1` ; log10 of Ki = 3.58

Entry `COc1ccc(-c2cc(C(=O)NCCc3ccc(S(N)(=O)=O)cc3)c3cc(Cl)ccc3n2)cc1OC` ; log10 of Ki = 2.88

Entry `NS(=O)(=O)c1ccc(NC(=O)c2cc(-c3ccccc3)nc3ccccc23)cc1` ; log10 of Ki = 2.73

* * *

target: Carbonic anhydrase 2 (Homo sapiens); assay: Inhibition of human recombinant carbonic anhydrase 2 assessed as inhibition constant incubated for 10 mins by phenol red dye based stopped-flow CO2 hydration assay
So basically every entry gets a class from its Ki, ranges being low interval (below 40 nM), middle interval (40 nM to below 300 nM), high interval (300 nM or more)

query: Assign a category based on measured Ki for `NS(=O)(=O)c1cccc(NC(=O)c2cc(-c3ccccc3)nc3ccc(Cl)cc23)c1` and give only the class name.
result: middle interval

query: Assign a category based on measured Ki for `COc1ccc(-c2cc(C(=O)Nc3cccc(S(N)(=O)=O)c3)c3cc(Cl)ccc3n2)cc1OC` and give only the class name.
result: middle interval

query: Assign a category based on measured Ki for `NS(=O)(=O)c1ccc(NC(=O)c2cc(-c3cccc(Cl)c3)nc3ccccc23)cc1` and give only the class name.
result: middle interval

query: Assign a category based on measured Ki for `COc1ccc2nc(-c3ccccc3OC)cc(C(=O)Nc3ccc(S(N)(=O)=O)cc3)c2c1` and give only the class name.
result: middle interval

query: Assign a category based on measured Ki for `NS(=O)(=O)c1cccc(NC(=O)c2cc(-c3cccc(C(F)(F)F)c3)nc3ccccc23)c1` and give only the class name.
result: middle interval

query: Assign a category based on measured Ki for `NS(=O)(=O)c1ccc(CCNC(=O)c2cc(-c3ccc4c(c3)OCO4)nc3ccccc23)cc1` and give only the class name.
result: low interval

query: Assign a category based on measured Ki for `COc1ccc2nc(-c3ccc(OC)c(OC)c3)cc(C(=O)NCCc3ccc(S(N)(=O)=O)cc3)c2c1` and give only the class name.
result: high interval

query: Assign a category based on measured Ki for `NS(=O)(=O)c1cccc(NC(=O)c2cc(-c3ccc4c(c3)OCO4)nc3ccccc23)c1` and give only the class name.
result: high interval

query: Assign a category based on measured Ki for `COc1ccc2nc(-c3ccc(OC)c(OC)c3)cc(C(=O)Nc3ccc(S(N)(=O)=O)cc3)c2c1` and give only the class name.
result: low interval

query: Assign a category based on measured Ki for CCN(C1CC(C)S(=O)(=O)c2sc(S(N)(=O)=O)cc21)S(=O)(=O)c1cccc2cccnc12 (configuration not stated) and give only the class name.
result: low interval

* * *

target: Carbonic anhydrase 2 (Homo sapiens); assay: Inhibition of human recombinant carbonic anhydrase 2 assessed as inhibition constant incubated for 10 mins by phenol red dye based stopped-flow CO2 hydration assay
For each entry below, report its pKi value.
pKi here is simply -log10 of the concentration when that concentration is written in mol/L.

# pKi measured on Carbonic anhydrase 2 (Homo sapiens) for item `NS(=O)(=O)c1ccc(NC(=O)c2cc(-c3cccc(C(F)(F)F)c3)nc3ccccc23)cc1` = 6.58

# pKi measured on Carbonic anhydrase 2 (Homo sapiens) for item `Cc1ccc(-c2cc(C(=O)Nc3cccc(S(N)(=O)=O)c3)c3cc(Cl)ccc3n2)cc1` = 6.53

# pKi measured on Carbonic anhydrase 2 (Homo sapiens) for item `COc1ccc(-c2cc(C(=O)NCCc3ccc(S(N)(=O)=O)cc3)c3ccccc3n2)cc1OC` = 7.45

* * *

target: Carbonic anhydrase 12 (Homo sapiens); test: Inhibition of human recombinant carbonic anhydrase 12 assessed as inhibition constant incubated for 10 mins by phenol red dye based stopped-flow CO2 hydration assay
Sequence (O43570 whole entry): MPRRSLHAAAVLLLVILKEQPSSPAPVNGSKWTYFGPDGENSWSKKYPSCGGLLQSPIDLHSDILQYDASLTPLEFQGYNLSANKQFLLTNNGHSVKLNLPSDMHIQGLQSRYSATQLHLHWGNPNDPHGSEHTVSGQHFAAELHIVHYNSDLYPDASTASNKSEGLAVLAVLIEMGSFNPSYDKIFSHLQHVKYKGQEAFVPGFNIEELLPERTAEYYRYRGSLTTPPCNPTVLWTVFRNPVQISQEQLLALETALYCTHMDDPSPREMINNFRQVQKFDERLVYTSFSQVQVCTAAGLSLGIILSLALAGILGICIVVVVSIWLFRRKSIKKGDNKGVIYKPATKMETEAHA
Reported Property: pKi
pKi here is simply -log10 of the concentration when that concentration is written in mol/L.

Entry `NS(=O)(=O)c1ccc(NC(=O)c2cc(-c3ccccc3)nc3ccccc23)cc1` ; pKi = 6.89

Entry `Cc1ccc(-c2cc(C(=O)Nc3cccc(S(N)(=O)=O)c3)c3cc(Cl)ccc3n2)cc1` ; pKi = 6.12

Entry `COc1ccc2nc(-c3ccc(Cl)cc3Cl)cc(C(=O)NCCc3ccc(S(N)(=O)=O)cc3)c2c1` ; pKi = 6.36

Entry `NS(=O)(=O)c1cccc(NC(=O)c2cc(-c3ccccc3)nc3ccc(Cl)cc23)c1` ; pKi = 7.15

Entry `COc1ccc(-c2cc(C(=O)Nc3cccc(S(N)(=O)=O)c3)c3ccccc3n2)cc1OC` ; pKi = 7.12

Entry `NS(=O)(=O)c1ccc(CCNC(=O)c2cc(-c3cccc(C(F)(F)F)c3)nc3ccccc23)cc1` ; pKi = 8.16

Entry `NS(=O)(=O)c1cccc(NC(=O)c2cc(-c3ccccc3)nc3ccccc23)c1` ; pKi = 8.02

Entry `COc1ccc(-c2cc(C(=O)Nc3ccc(S(N)(=O)=O)cc3)c3cc(Cl)ccc3n2)cc1OC` ; pKi = 6.67

Entry `COc1ccc2nc(-c3ccccc3OC)cc(C(=O)NCCc3ccc(S(N)(=O)=O)cc3)c2c1` ; pKi = 6.07

Entry `COc1ccc2nc(-c3ccccc3)cc(C(=O)Nc3ccc(S(N)(=O)=O)cc3)c2c1` ; pKi = 7.25

Entry `COc1ccc2nc(-c3ccccc3C)cc(C(=O)Nc3ccc(S(N)(=O)=O)cc3)c2c1` ; pKi = 7.33

Entry `COc1ccc(-c2cc(C(=O)NCCc3ccc(S(N)(=O)=O)cc3)c3cc(Cl)ccc3n2)cc1OC` ; pKi = 6.52

Entry `COc1ccc2nc(-c3ccccc3OC)cc(C(=O)Nc3ccc(S(N)(=O)=O)cc3)c2c1` ; pKi = 8.06

Entry `NS(=O)(=O)c1cccc(NC(=O)c2cc(-c3cccc(Cl)c3)nc3ccc(Cl)cc23)c1` ; pKi = 6.28

Entry `COc1ccc2nc(-c3ccc(OC)c(OC)c3)cc(C(=O)Nc3ccc(S(N)(=O)=O)cc3)c2c1` ; pKi = 7.12

Entry `NS(=O)(=O)c1cc(C(=O)CSc2nc3c(cnc4ccccc43)[nH]2)ccc1Cl` ; pKi = 10.00

Entry `COc1ccc(-c2cc(C(=O)NCCc3ccc(S(N)(=O)=O)cc3)c3ccccc3n2)cc1OC` ; pKi = 7.05

Entry `NS(=O)(=O)c1ccc(CCNC(=O)c2cc(-c3ccccc3)nc3ccc(Cl)cc23)cc1` ; pKi = 8.17

Entry `NS(=O)(=O)c1ccc(NC(=O)c2cc(-c3cccc(C(F)(F)F)c3)nc3ccccc23)cc1` ; pKi = 6.77

Entry `COc1ccc(-c2cc(C(=O)Nc3ccc(S(N)(=O)=O)cc3)c3ccccc3n2)c(OC)c1` ; pKi = 6.58

Entry `NS(=O)(=O)c1cccc(NC(=O)c2cc(-c3cccc(Br)c3)nc3ccccc23)c1` ; pKi = 6.47

Entry `NS(=O)(=O)c1cccc(NC(=O)c2cc(-c3ccc4c(c3)OCO4)nc3ccccc23)c1` ; pKi = 7.05

Entry `COc1ccc2nc(-c3ccc(OC)c(OC)c3)cc(C(=O)NCCc3ccc(S(N)(=O)=O)cc3)c2c1` ; pKi = 6.66

Entry `COc1ccc(-c2cc(C(=O)Nc3cccc(S(N)(=O)=O)c3)c3cc(Cl)ccc3n2)cc1OC` ; pKi = 6.37

Entry `NS(=O)(=O)c1ccc(CCNC(=O)c2cc(-c3cccc(Br)c3)nc3ccccc23)cc1` ; pKi = 7.51

Entry `NS(=O)(=O)c1cccc(NC(=O)c2cc(-c3cccc(C(F)(F)F)c3)nc3ccccc23)c1` ; pKi = 6.44
